# target-desc: human Fatty Acid Synthase (Homo sapiens)
# Construct: made in house
# Sequence (P49327 whole entry): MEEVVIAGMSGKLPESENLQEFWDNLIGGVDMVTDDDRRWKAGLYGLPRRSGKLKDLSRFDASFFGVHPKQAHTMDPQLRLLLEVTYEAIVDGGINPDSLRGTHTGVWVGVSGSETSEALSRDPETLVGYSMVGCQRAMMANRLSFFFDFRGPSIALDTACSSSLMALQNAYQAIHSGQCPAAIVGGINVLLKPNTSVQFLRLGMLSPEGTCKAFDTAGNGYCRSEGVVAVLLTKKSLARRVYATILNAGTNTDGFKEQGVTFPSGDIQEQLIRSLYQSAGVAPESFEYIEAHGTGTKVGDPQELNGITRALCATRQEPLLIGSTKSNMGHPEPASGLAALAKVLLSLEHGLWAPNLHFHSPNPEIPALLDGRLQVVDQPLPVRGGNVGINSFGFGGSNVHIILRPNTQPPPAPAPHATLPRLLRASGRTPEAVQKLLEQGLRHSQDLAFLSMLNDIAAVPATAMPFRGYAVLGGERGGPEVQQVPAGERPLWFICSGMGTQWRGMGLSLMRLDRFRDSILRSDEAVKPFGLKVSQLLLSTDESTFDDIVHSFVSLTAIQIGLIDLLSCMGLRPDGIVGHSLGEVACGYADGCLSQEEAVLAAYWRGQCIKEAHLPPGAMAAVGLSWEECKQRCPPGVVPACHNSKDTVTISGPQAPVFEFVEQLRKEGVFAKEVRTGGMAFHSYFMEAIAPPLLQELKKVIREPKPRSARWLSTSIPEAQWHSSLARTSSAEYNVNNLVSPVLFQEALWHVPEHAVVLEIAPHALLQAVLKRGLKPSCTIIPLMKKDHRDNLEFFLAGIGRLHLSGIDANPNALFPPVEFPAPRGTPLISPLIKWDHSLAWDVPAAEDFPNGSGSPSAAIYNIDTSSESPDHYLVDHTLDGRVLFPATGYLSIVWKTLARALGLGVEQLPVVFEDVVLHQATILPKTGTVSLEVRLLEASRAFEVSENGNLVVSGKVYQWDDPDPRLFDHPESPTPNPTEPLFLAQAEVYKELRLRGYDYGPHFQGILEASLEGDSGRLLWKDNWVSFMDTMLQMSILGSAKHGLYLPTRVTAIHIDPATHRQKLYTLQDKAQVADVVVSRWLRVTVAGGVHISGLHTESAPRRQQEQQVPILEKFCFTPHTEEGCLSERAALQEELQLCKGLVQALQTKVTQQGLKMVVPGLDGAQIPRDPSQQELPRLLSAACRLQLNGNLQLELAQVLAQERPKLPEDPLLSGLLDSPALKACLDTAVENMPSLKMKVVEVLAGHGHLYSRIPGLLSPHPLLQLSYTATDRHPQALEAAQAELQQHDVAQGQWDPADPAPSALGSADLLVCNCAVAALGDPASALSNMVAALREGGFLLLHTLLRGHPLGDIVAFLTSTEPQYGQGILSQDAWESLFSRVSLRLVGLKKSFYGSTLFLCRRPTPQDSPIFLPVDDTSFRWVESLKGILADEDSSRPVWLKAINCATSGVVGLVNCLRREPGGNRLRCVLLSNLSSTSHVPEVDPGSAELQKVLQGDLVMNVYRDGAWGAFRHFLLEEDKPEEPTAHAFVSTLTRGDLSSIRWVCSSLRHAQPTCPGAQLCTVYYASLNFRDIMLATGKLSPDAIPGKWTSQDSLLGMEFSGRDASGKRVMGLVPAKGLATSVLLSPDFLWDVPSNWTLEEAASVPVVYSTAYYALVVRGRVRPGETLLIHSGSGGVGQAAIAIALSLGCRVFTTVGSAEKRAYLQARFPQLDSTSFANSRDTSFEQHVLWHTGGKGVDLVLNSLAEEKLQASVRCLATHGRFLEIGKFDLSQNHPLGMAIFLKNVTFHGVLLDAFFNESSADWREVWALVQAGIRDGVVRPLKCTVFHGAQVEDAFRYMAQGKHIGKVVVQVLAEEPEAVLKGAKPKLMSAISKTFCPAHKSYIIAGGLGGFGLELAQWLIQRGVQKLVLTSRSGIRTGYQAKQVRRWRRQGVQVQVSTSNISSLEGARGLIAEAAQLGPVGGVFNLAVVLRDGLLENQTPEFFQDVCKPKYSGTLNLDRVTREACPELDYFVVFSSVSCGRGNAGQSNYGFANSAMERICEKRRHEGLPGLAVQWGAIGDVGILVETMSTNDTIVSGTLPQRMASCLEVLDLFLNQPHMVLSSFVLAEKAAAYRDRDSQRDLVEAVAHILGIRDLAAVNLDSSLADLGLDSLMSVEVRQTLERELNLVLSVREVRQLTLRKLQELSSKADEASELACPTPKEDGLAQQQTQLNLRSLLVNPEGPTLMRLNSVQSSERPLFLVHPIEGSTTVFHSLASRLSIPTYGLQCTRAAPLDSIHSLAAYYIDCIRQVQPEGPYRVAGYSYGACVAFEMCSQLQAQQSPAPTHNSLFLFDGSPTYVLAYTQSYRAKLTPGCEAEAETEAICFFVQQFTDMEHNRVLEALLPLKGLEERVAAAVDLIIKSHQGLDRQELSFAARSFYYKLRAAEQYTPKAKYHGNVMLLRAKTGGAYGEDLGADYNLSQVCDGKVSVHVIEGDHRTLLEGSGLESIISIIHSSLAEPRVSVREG
# method-description: Human FAS enzyme assay (decrease in NADPH fluorescence)
# Assay type: biochemical
# experimental-context: % inhibition at a concentration of 100 μmolar
Classify as follows. Reported inhibition at 100 µM greater than or equal to 90%: class 1. Reported inhibition at 100 µM below: class 0.

1. Cc1ccc(C(=O)N2CCC(c3ccc(C#N)cc3)CC2)cc1NC(=O)N(C)CC(=O)NC(C)C | class 0
2. Cc1ccc(C(=O)N2CCC(c3ccc(C#N)cc3)CC2)cc1NC(=O)NCC1CC1 | class 1
3. COCCOCCCNC(=O)Nc1cc(C(=O)N2CCC(c3ccc(C#N)cc3)CC2)ccc1C | class 1
4. Cc1ccc(C(=O)N2CCC(c3ccc(C#N)cc3)CC2)cc1NC(=O)NC(C)(C)CO | class 0
5. CC(=O)N[C@H]1CC[C@H](NC(=O)Nc2cc(C(=O)N3CCC(c4ccc(C#N)cc4)CC3)ccc2C)C1 | class 1
6. N#Cc1ccc(C2CCN(C(=O)c3ccc(F)c(NC(=O)NCc4ccccc4)c3)CC2)cc1 | class 0
